# Tested system: FL-SMARCA4 (Homo sapiens)
# Sequence (P51532 whole entry): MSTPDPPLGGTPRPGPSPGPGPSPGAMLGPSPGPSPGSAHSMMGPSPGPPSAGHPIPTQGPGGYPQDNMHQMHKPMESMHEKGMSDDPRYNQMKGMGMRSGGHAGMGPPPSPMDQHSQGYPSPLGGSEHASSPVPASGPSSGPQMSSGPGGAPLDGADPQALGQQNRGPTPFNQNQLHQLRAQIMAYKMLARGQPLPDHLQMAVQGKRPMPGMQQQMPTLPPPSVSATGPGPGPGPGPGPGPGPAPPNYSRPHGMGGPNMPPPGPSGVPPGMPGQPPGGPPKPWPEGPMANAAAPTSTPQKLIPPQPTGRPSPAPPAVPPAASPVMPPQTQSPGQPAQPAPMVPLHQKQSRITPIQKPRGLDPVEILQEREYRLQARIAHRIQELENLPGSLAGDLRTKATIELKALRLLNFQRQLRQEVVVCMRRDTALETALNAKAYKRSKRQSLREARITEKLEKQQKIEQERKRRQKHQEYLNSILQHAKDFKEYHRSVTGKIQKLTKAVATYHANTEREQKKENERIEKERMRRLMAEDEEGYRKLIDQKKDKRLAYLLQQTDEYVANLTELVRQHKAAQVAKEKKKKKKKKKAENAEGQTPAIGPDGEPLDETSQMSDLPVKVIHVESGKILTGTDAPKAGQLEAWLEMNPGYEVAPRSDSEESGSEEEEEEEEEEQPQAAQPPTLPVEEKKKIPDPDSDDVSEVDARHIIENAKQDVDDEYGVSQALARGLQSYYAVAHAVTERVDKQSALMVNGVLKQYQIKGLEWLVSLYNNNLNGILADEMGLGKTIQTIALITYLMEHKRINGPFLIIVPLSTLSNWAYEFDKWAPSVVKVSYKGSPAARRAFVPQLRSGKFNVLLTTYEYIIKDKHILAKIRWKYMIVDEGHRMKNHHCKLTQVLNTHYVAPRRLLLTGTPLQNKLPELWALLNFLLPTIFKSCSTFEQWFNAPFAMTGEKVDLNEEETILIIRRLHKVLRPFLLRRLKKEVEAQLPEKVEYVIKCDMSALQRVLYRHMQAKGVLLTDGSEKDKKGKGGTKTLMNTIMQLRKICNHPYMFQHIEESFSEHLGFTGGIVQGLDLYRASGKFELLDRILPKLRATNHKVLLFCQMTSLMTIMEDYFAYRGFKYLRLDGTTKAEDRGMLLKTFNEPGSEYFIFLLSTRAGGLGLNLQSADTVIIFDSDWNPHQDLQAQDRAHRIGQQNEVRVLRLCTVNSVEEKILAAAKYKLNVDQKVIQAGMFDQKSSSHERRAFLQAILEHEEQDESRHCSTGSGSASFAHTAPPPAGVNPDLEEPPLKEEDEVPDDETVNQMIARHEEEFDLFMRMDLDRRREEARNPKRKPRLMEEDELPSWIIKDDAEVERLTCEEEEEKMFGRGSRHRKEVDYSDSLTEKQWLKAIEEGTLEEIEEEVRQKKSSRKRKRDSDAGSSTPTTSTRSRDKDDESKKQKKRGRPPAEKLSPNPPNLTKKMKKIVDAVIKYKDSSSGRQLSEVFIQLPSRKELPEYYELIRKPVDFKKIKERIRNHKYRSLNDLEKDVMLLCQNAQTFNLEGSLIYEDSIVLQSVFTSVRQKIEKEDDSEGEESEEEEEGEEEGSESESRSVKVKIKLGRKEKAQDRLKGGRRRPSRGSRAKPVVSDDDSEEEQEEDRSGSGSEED
# Measurement notes: SMARCA4 ATPase activity assay (ADP-Glo, chicken mononucleosome substrate)
# Study conditions: FL-SMARCA4 IC>50, Table 3c.2; ATPase assay, enzyme 5 nM, ATP 250 uM, chicken mononucleosome 10 nM, 30 min preincubation
pIC50: −log10 of the molar value.
Classify as follows. Reported pIC50 greater than or equal to 7: class 1. Reported pIC50 below: class 0.

# example entries with known answers
| Compound | Label |
| --- | --- |
| Cn1cncc1-c1cc(NC(=O)c2sc(C(F)(F)F)cc2Cl)cn(CC(F)F)c1=O [Compound 38c] | class 0 |
| O=C(Nc1cc(F)c(=O)n(CC(F)F)c1)c1cc(C#Cc2ccncc2)n[nH]1 [Compound 112c] | class 0 |
| Cn1cnc(C#Cc2cc(C(=O)Nc3cc(F)c(=O)n(CC(F)F)c3)sc2Cl)c1 [Compound 60c] | class 0 |
| O=C(Nc1cc(F)c(=O)n(CC(F)F)c1)c1cc(C#CC2COC2)c(C2CC2)s1 [Compound 94c] | class 0 |

Task: Could you tell me if the measured pIC50 of O=C(Nc1cc(F)c(=O)n(CC(F)F)c1)c1cc(C#Cc2cn3ccccc3n2)c(Cl)s1 reaches 7 or more?
Result: class 0

Task: Repeat with CC(C)(C)OC(=O)N1CC(C#Cc2cc(C(=O)Nc3cc(F)c(=O)n(CC(F)F)c3)sc2Cl)C1 [Compound 10c]
Result: class 0

* * *

Exercise: state measured IC50 for each of the molecules provided.
# Tested system: FL-SMARCA2 (full-length human SMARCA2 isoform 1) (Homo sapiens)
# Construct: FLAG tag (YKDDDDK) (C); made in house; host or cells: Sf21 insect cells (baculovirus, pFastBacI)
# Sequence (P51531 with tags, fused parts or gaps): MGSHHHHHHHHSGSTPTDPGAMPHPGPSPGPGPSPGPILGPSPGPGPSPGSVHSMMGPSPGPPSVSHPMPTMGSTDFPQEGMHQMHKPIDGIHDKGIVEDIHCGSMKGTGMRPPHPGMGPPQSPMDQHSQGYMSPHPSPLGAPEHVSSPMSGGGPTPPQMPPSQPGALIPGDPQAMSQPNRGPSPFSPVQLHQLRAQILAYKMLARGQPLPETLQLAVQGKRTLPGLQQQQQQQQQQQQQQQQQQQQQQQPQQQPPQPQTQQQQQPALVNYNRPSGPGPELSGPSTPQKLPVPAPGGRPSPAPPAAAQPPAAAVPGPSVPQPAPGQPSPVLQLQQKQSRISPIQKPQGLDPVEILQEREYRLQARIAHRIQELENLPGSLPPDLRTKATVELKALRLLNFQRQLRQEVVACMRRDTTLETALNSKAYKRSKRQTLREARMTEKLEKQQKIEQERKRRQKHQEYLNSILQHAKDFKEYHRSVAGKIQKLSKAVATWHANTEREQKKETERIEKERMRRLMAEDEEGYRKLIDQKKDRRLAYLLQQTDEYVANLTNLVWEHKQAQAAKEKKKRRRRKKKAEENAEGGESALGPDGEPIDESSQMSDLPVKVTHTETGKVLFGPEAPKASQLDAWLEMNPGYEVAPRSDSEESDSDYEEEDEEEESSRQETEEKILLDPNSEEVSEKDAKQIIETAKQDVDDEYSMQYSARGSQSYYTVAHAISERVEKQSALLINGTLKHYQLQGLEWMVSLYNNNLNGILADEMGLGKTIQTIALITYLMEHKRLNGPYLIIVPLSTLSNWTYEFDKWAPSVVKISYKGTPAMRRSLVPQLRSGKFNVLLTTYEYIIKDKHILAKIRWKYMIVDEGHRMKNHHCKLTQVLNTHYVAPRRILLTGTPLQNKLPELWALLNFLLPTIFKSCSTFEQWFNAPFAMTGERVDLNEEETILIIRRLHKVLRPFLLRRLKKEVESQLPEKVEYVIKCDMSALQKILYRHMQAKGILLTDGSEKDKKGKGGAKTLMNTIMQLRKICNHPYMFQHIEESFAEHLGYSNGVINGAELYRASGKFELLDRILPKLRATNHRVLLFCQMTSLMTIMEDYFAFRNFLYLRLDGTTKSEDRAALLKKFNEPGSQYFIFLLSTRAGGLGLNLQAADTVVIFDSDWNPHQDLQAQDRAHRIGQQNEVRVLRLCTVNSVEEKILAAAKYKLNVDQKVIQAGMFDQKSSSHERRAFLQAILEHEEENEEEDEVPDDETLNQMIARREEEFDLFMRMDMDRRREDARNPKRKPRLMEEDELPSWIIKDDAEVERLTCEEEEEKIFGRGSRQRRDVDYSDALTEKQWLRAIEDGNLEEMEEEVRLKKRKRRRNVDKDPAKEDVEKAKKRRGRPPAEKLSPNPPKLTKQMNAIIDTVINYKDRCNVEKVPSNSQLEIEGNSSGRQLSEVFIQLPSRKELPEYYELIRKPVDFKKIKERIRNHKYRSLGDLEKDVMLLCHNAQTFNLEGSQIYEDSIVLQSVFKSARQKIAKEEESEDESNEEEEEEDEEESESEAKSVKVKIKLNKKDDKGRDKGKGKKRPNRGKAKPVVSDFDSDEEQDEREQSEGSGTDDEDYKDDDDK
# Measurement notes: SMARCA2 ATPase activity assay (ADP-Glo, chicken mononucleosome substrate)
# Format: biochemical
# Study conditions: Table 3.1; ATPase assay, enzyme 5 nM, ATP 250 uM, chicken mononucleosome 10 nM, 30 min preincubation

| Compound | Tested system | IC50 |
| --- | --- | --- |
| CCc1cc(NC(=O)c2cc(Cl)c(Cl)s2)cn(C)c1=O | FL-SMARCA2 (full-length human SMARCA2 isoform 1) (Homo sapiens) | > 50 µM |
| NC(=O)c1ccc(C(=O)Nc2cc(F)c(=O)n(CCF)c2)s1 | FL-SMARCA2 (full-length human SMARCA2 isoform 1) (Homo sapiens) | > 50 µM |

Now look at this entry.
Task: IC50 lookup needed for CCCc1cc(NC(=O)c2cc(Cl)c(Cl)s2)cn(CC)c1=O , thanks.
Result: > 50 µM

* * *

# Tested system: FL-SMARCA4 (Homo sapiens)
# Measurement notes: SMARCA4 ATPase activity assay (ADP-Glo, chicken mononucleosome substrate)
# Study conditions: FL-SMARCA4 IC50, Table 3.2; ATPase assay, enzyme 5 nM, ATP 250 uM, chicken mononucleosome 10 nM, 30 min preincubation
Reported endpoint: IC50

| Compound | Tested system | IC50 |
| --- | --- | --- |
| Cn1c(C(=O)Nc2cc(C#N)c(=O)n(CCF)c2)cnc1Cl | FL-SMARCA4 (Homo sapiens) | > 50 µM |
| CCn1cc(NC(=O)c2cc(-c3ccn(C)n3)c(Cl)s2)ccc1=O | FL-SMARCA4 (Homo sapiens) | > 50 µM |
| Cn1cc(C(=O)Nc2cc(F)c(=O)n(CCF)c2)sc1=O | FL-SMARCA4 (Homo sapiens) | > 50 µM |
| O=C(Nc1cc(F)c(=O)n(CCF)c1)c1cnc(Br)o1 | FL-SMARCA4 (Homo sapiens) | > 50 µM |
| CC(C)Nc1ncc(C(=O)Nc2cc(F)c(=O)n(CCF)c2)s1 | FL-SMARCA4 (Homo sapiens) | > 50 µM |
| CCn1cc(NC(=O)c2cc(Cl)c(Cl)n2C(C)C)ccc1=O | FL-SMARCA4 (Homo sapiens) | > 50 µM |

Look at each compound and report its IC50.
1. CCn1cc(NC(=O)c2nncs2)ccc1=O
2. CCc1cc(NC(=O)c2cc(Cl)c(Cl)s2)cn(CC)c1=O
3. CCn1cc(NC(=O)c2ccc(Cl)n2C)ccc1=O
4. O=C(Nc1cc(F)c(=O)n(CCF)c1)c1ccc(-c2nccs2)s1

Result:
> 50 µM
> 50 µM
> 50 µM
> 50 µM

Task: Can you share its IC50? I mean this compound: CCn1cc(NC(=O)c2cc(C)c(Cl)s2)ccc1=O
Result: > 50 µM
